- assay-target: T1, Aβ1-42 peptide
- T1 construct: also called 1-42 (WT)
- T1 sequence (peptide, as listed by the source): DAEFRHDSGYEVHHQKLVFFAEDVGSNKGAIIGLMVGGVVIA
- assay-method-text: ELISA, nonbiotinylated peptide on plate; note: test concentration or dose not given here
Below, each entry is listed with its recorded A450 ELISA.

Example cases with answers are listed next.
>  <binder>
6G heavy chain variant 4B (R104F) (antibody, V domains shown) VH: QVQLVQSGAEVKKPGASVKVSCKASGYTFTTYAIHWVRQAPGQGLEWMGFTSPYSGVSNYNQKFKGRVTMTRDTSTSTVYMELSSLRSEDTAVYYCARFDNYDFGYVRDYWGQGTLVTVS VL: DIVMTQSPDSLAVSLGERATINCRASESVDNDRISFLNWYQQKPGQPPKLLIYAATKQGTGVPDRFSGSGSGTDFTLTISSLQAEDVAVYYCQQSKEFPWSFGGGTKVEIKR

>  <A450 ELISA>
0.71 A450

$$$$
>  <binder>
6G light chain variant 6C (E97G) (antibody, V domains shown) VH: QVQLVQSGAEVKKPGASVKVSCKASGYTFTTYAIHWVRQAPGQGLEWMGFTSPYSGVSNYNQKFKGRVTMTRDTSTSTVYMELSSLRSEDTAVYYCARFDNYDRGYVRDYWGQGTLVTVS VL: DIVMTQSPDSLAVSLGERATINCRASESVDNDRISFLNWYQQKPGQPPKLLIYAATKQGTGVPDRFSGSGSGTDFTLTISSLQAEDVAVYYCQQSKGFPWSFGGGTKVEIKR

>  <A450 ELISA>
0.05 A450

$$$$
>  <binder>
6G light chain variant 6D (E97T) (antibody, V domains shown) VH: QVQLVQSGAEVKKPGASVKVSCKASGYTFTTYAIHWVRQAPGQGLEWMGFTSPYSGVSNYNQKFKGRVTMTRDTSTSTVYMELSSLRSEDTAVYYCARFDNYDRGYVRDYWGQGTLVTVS VL: DIVMTQSPDSLAVSLGERATINCRASESVDNDRISFLNWYQQKPGQPPKLLIYAATKQGTGVPDRFSGSGSGTDFTLTISSLQAEDVAVYYCQQSKTFPWSFGGGTKVEIKR

>  <A450 ELISA>
1.34 A450

$$$$
>  <binder>
6G heavy chain variant 11D (Y102M) (antibody, V domains shown) VH: QVQLVQSGAEVKKPGASVKVSCKASGYTFTTYAIHWVRQAPGQGLEWMGFTSPYSGVSNYNQKFKGRVTMTRDTSTSTVYMELSSLRSEDTAVYYCARFDNMDRGYVRDYWGQGTLVTVS VL: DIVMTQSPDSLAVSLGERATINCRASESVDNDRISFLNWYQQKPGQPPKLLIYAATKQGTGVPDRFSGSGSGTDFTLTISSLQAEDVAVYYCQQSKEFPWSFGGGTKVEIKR

>  <A450 ELISA>
0.24 A450

$$$$
>  <binder>
6G heavy chain variant 6F (R104S) (antibody, V domains shown) VH: QVQLVQSGAEVKKPGASVKVSCKASGYTFTTYAIHWVRQAPGQGLEWMGFTSPYSGVSNYNQKFKGRVTMTRDTSTSTVYMELSSLRSEDTAVYYCARFDNYDSGYVRDYWGQGTLVTVS VL: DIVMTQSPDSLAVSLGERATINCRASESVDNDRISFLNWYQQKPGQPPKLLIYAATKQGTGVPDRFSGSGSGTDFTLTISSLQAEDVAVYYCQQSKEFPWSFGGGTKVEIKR

>  <A450 ELISA>
0.62 A450

$$$$

Input 6G light chain variant 2H (Q93K) (antibody, V domains shown) VH: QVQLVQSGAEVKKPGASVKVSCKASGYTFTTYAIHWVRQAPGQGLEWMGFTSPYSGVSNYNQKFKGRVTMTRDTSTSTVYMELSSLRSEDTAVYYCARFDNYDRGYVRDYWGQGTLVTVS VL: DIVMTQSPDSLAVSLGERATINCRASESVDNDRISFLNWYQQKPGQPPKLLIYAATKQGTGVPDRFSGSGSGTDFTLTISSLQAEDVAVYYCKQSKEFPWSFGGGTKVEIKR . Output A450 ELISA: 0.13 A450

Input 6G heavy chain variant 8H (N101H) (antibody, V domains shown) VH: QVQLVQSGAEVKKPGASVKVSCKASGYTFTTYAIHWVRQAPGQGLEWMGFTSPYSGVSNYNQKFKGRVTMTRDTSTSTVYMELSSLRSEDTAVYYCARFDHYDRGYVRDYWGQGTLVTVS VL: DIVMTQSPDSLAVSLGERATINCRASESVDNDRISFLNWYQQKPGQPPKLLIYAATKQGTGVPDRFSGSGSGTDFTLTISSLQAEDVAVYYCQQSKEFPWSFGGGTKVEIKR . Output A450 ELISA: 0.19 A450

Input 6G heavy chain variant 4D (R104Q) (antibody, V domains shown) VH: QVQLVQSGAEVKKPGASVKVSCKASGYTFTTYAIHWVRQAPGQGLEWMGFTSPYSGVSNYNQKFKGRVTMTRDTSTSTVYMELSSLRSEDTAVYYCARFDNYDQGYVRDYWGQGTLVTVS VL: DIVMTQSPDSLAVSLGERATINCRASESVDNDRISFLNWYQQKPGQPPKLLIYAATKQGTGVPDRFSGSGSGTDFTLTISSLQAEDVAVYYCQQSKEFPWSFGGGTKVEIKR . Output A450 ELISA: 1 A450

Input 6G light chain variant 8G (E97V) (antibody, V domains shown) VH: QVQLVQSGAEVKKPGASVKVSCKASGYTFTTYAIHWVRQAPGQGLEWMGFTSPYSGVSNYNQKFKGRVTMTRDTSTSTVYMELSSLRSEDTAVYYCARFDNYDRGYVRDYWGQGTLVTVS VL: DIVMTQSPDSLAVSLGERATINCRASESVDNDRISFLNWYQQKPGQPPKLLIYAATKQGTGVPDRFSGSGSGTDFTLTISSLQAEDVAVYYCQQSKVFPWSFGGGTKVEIKR . Output A450 ELISA: 0.9 A450

Source: patent US20090022728A1
